Entries and their pIC50 values follow.
Test system: HAP1 MTAP-intact cell line
assay.protocol: SDMA in-cell western assay, HAP1 MTAP-intact
Assay type: cell-based
test.conditions: Homo sapiens, HAP1, SDMA in-cell western, HAP1 MTAP-intact; read-out: MTAP HAP1 intact IC50
pIC50: −log10 of the molar value.

Worked cases, pIC50 given:
1. CC(=O)Nc1ccc([C@@H]2CC[C@@H](C)CN2C(=O)C(=O)Nc2cncc(C(N)=O)c2)s1 (single isomer, unassigned) ... < 6.00
2. CCN1CCC(c2nc3cc([C@H]4CC[C@H](C)CN4C(=O)C(=O)Nc4cnc(OC)c(C(N)=O)c4)ccc3s2)CC1 ... 6.00 to 7.00
3. CCc1cc(NC(=O)C(=O)N2CC(C)CCC2c2ccc3sc(C4CCN(C)CC4C)nc3c2)cnc1N (racemic) [Compound 1373] ... > 7.00
4. COc1cc([C@@H]2CC[C@@H](C)CN2C(=O)C(=O)Nc2cncc(C(N)=O)c2)cnc1C(F)(F)F (racemic) ... < 6.00
5. Cc1cc(NC(=O)C(=O)N2C[C@@H](C)CC[C@@H]2c2ccc(C(F)(F)F)nc2)cnc1N (single isomer, unassigned) ... 6.00 to 7.00
6. Cc1cncc(NC(=O)C(=O)N2C[C@H](C)CC[C@H]2c2cccc(F)c2)c1 (racemic) ... < 6.00
7. Cc1cc(NC(=O)C(=O)N2C[C@H](C)CC[C@H]2c2cnc3c(c2)CCC(=O)N3)cnc1N (racemic) ... < 6.00
8. C[C@@H]1CC[C@@H](c2ccc3[nH]ncc3c2F)N(C(=O)C(=O)Nc2cncc(C(N)=O)c2)C1 (single isomer, unassigned) ... < 6.00

Report value only: pIC50, HAP1 MTAP-intact cell line, COc1ncc(NC(=O)C(=O)N2C[C@@H](C)CC[C@H]2C2CCCCC2)cc1C(N)=O (single isomer, unassigned)
< 6.00

Check HAP1 MTAP-intact cell line data and give pIC50 for CCc1cc(NC(=O)C(=O)N2C[C@H](C)CC[C@H]2c2ccc3sc(NC)nc3c2)cnc1N (single isomer, unassigned) .
< 6.00

Look up and report measured pIC50 (HAP1 MTAP-intact cell line) for the following compound: Cc1cc(NC(=O)C(=O)N2C[C@@H](C)CC[C@@H]2c2cccc(N3CCN(C)CC3)c2)cnc1N (single isomer, unassigned)
> 7.00

====

experimental.system: PRMT5 (Homo sapiens)
Construct: purchased Viva (custom protein)
assay.protocol: PRMT5 biochemical IC50 assay with MTA as cofactor
test.conditions: PRMT5, MTA as cofactor; read-out: MTA IC50
pIC50: −log10 of the molar value.
measurement.label: pIC50

1. C[C@@H]1CC[C@@H](c2cc3cn[nH]c3cc2F)N(C(=O)C(=O)Nc2cncc(C(N)=O)c2)C1 (single isomer, unassigned) ... < 6.30
2. Cc1cc(NC(=O)C(=O)N2C[C@H](C)CC[C@H]2c2ccc3cc[nH]c(=O)c3c2)cnc1N (single isomer, unassigned) ... > 7.30

Switching to the query record.
Respond only with pIC50 recorded for C[C@H]1CC[C@H](c2ccc(F)c(F)c2)N(C(=O)C(=O)Nc2cncc(C(N)=O)c2)C1 (single isomer, unassigned)
> 7.30

====

Here, each record is paired with measured pIC50 data.
experimental.system: PRMT5 (Homo sapiens, UniProt O14744)
Construct: purchased Viva (custom protein)
Sequence (O14744 whole entry): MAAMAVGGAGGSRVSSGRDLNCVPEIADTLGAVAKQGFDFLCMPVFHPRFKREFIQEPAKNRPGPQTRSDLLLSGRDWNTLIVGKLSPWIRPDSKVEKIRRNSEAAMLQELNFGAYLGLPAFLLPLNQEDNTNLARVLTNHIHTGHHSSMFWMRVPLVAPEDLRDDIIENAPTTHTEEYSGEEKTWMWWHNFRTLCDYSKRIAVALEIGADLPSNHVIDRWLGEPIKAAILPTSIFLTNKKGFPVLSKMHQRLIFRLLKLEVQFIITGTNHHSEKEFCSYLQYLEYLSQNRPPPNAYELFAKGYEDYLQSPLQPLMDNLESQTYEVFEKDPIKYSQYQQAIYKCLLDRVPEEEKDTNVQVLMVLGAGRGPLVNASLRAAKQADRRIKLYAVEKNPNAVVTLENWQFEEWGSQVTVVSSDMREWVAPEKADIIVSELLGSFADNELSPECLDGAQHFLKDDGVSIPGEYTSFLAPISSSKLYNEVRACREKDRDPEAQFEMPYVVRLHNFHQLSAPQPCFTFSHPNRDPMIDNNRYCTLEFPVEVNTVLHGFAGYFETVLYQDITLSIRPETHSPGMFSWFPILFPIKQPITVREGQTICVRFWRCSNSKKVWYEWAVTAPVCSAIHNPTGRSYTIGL
Sequence (Q9BQA1 whole entry partner): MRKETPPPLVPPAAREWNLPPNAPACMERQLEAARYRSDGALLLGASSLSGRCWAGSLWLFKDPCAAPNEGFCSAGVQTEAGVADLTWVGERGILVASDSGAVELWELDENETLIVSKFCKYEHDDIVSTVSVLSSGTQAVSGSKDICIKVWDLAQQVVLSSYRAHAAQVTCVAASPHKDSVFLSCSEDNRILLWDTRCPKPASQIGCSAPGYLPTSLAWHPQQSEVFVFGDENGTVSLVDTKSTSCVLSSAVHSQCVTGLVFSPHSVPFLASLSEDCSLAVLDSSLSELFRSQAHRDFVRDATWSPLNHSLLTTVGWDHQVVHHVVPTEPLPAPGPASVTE
assay.protocol: PRMT5 biochemical IC50 assay with SAM as cofactor
test.conditions: PRMT5, SAM as cofactor; read-out: SAM IC50
pIC50: −log10 of the molar value.

# example entries with known answers
1. CCc1cc(NC(=O)C(=O)N2C[C@@H](C)CC[C@@H]2c2cccc(OC[C@@H]3CCN(C)C3)c2)cnc1N ... > 7.30
2. Cc1cc(NC(=O)C(=O)N2C[C@H](C)CC[C@H]2c2cccc3c2CC(=O)N3)cnc1N (racemic) ... 6.30 to 7.30
3. CO[C@@H]1C[C@@H](c2ccc3scnc3c2)N(C(=O)C(=O)Nc2cnc(N)c(C)c2)C[C@@H]1C (single isomer, unassigned) ... < 6.30

Determine its reported pIC50: Cc1cc(C)n(-c2cccc([C@@H]3CC[C@@H](C)CN3C(=O)C(=O)Nc3cncc(C(N)=O)c3)c2)n1 (racemic)
6.30 to 7.30

For the molecule Cc1cc(NC(=O)C(=O)N2C[C@@H](C)CC[C@@H]2c2ccc3c(c2)CCNC3=O)cnc1N (single isomer, unassigned) , give its measured pIC50 value.
< 6.30

Please report pIC50 for the following molecule: Cc1cc(NC(=O)C(=O)N2C[C@H](C)C[C@@H](C)[C@H]2c2ccccc2)cnc1N (single isomer, unassigned)
6.30 to 7.30
